B1: library; numbered along this chain (parent)
chain: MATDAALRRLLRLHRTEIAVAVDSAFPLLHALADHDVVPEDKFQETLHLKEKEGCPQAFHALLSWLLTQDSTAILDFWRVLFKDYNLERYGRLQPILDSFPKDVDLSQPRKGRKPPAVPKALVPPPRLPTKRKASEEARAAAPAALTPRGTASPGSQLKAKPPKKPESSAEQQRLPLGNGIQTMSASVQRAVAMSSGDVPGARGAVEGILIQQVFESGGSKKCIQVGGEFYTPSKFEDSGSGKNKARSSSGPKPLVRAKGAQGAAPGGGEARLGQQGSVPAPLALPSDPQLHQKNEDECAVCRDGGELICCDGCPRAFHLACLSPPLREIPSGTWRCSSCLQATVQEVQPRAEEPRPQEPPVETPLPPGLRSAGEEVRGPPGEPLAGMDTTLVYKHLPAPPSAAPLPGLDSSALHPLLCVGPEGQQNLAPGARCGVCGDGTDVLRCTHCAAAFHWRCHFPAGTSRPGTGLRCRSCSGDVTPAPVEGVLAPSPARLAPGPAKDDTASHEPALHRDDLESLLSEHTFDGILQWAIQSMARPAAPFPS

Variants of: B1
Assay: AIRE transcriptional activation functional score (insulin promoter-GFP; nonsense median 0, synonymous median 1) (normalised score); higher = higher AIRE activity (more reporter activation)
Conditions: with insulin promoter-GFP reporter in HEK293
Observed Property: AIRE transcriptional activation functional score

>>> df
    variant_string  readout_value
 0            W65Q         -0.357
 1           P252Y          0.649
 2           L308V           1.16
 3            D70M         -0.516
 4           E136M          0.441
 5            R89F           1.93
 6           V192M           1.08
 7           E171G           1.27
 8            R79V           0.88
 9           V206I           1.26
10           M536S          0.272
11           D304C           1.29
12           H415K           0.65
13           E137I           0.97
14           R538L           1.52
15           G155F           1.61
16           C472A         -0.164
17           G227W          0.742
18           C475E         -0.103
19           L418P           0.93
20           P490E          0.916
21           A246T          0.841
22           R456E           1.24
23            Y90G         -0.388
24           L283N          0.486
25           K159F           1.44
26           P166N           1.41
27           V345S          0.912
28           L385H           1.13
29           P282Q          0.976
30           L273D          0.505
31           T480F           1.32
32           W335C           1.24
33           K222N          0.679
34           S412I          0.868
35           T504A           1.58
36           F525L           0.45
37           V377F           1.15
38           T334N           0.91
39           D288Y           1.23
40           L128A           1.19
41           R257I          0.805
42           L366M          0.554
43           N427T           1.07
44           R127M            1.1
45           G204R           1.32
46            L87W         -0.816
47           S248G           1.13
48           D502C           0.85
49           K501C          0.625
50           S535C          0.706
51           S339L          0.775
52           D410C           1.12
53           R257Q          0.729
54            F26R         -0.107

Reference source: the supplement of paper PMC12667976
